Listing: pIC50 of selected compounds
# assay overview: Inhibition of protein kinase C gamma
pIC50: −log10 of the molar value.
measured parameter: pIC50

OCCCNc1cncc(-c2cncc(Nc3cccc(Cl)c3)n2)c1 | < 5.00
OCCCCNc1cncc(-c2cncc(Nc3cccc(Cl)c3)n2)c1 | < 5.00
CN(C)CCNc1cncc(-c2cncc(Nc3cccc(Cl)c3)n2)c1 | 5.40

----------
# system under test: Casein kinase I
# assay overview: Inhibition of casein kinase 1
# Format: protein assay
Listing: IC50 of selected compounds
measured parameter: IC50 (µM)

Clc1cccc(Nc2cncc(-c3cncc(NCCCn4cccn4)c3)n2)c1 | 5.6
Clc1cccc(Nc2cncc(-c3cncc(NCCCn4cncn4)c3)n2)c1 | 6.5
